# SYSTEM: T1, GR (Homo sapiens, UniProt P04150)
# T1 construct: host or cells: HEK293 (HEK293/GRLuc; HEK293/GRLuc/MSR1 additionally transduced with human MSR1)
# T1 sequence (P04150 524-758 limits assumed): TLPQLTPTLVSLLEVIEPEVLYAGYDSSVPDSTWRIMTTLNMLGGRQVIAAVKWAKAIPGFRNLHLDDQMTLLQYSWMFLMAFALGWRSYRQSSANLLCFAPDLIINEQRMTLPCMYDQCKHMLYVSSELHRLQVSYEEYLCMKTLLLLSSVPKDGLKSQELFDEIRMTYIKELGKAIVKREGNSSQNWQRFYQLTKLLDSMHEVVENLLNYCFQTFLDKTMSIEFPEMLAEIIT
# MEASUREMENT DESCRIPTION: GR luciferase reporter assay in HEK293/GRLuc cells
# Type: cell-based
# EXPERIMENTAL PARAMETERS: Table 11, ADCs
pEC50: −log10 of the molar value.
OBSERVABLE: pEC50

Inquiry: Entry H1H21234N-N297Q-L14-PII-1 (antibody, V domains shown, heavy-chain constant region (not part of this entry): N297Q (EU); linker-payload L14-PII-1 (DIBAC-GGFG-NHCH2-Bud) conjugated as in Example 5; four DAR ADC) VH: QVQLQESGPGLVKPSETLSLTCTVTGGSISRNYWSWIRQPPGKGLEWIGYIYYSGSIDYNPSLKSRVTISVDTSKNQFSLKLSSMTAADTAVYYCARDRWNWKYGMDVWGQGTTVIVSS VL: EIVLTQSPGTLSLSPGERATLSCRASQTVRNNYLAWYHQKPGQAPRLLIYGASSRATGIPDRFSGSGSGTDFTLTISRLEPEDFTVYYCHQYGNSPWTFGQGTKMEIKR needs its pEC50 filled in; supply it.
Reply text: < 7.00
